biological target: His-LAMA4 as used in Example 6 (species not stated) (Homo sapiens (Human)) (UniProt Q16363); assay: ForteBio BLI, LAMA-His on anti-His sensor, antibody 33.3 nM
Provide the recorded koff for the entries that follow.
Enter your answer as a number in s⁻¹; do not include the unit.

Noted for humanized 19C12 antibody H2L6 (antibody, V domains shown) VH: QVQLQQSGAELVKPGASVKVSCKASGYAFSTYWMNWVRQAPGQGLEWIGQIYPGDGDTNYNGKFKGRVTITADKSTSTAYMELSSLRSEDTAVYFCARSDGYYDYWGQGTTVTVSS VL: DIVLTQSPASLAVSLGERATISCRASESVDSYGTSFMHWYQQKPGQPPKLLISLASSLESGVPARFSGSGSGTDFTLTISPVEAEDAATYYCQQNNEDPPTFGAGTKLEIKR : its koff reads 0.000585

# binder humanized 19C12 antibody H2L3 (antibody, V domains shown) VH: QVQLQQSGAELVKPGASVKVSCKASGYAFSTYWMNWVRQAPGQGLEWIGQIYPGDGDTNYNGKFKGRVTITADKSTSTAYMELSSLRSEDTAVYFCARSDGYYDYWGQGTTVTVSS VL: NIVLTQSPASLAVSLGERATISCRASESVDSYGTSFMHWYQQKPGQPPKLLICLASSLESGVPARFSGSGSRTDFTLTIDPVEAEDAATYYCQQNNEDPPTFGAGTKLEIKR ; its koff = 0.000493

Data credit: patent US20170158755A1
